Data origin, for the record: patent US10494415B2

The entries below are paired with their reported Kinetics koff.
Target: IGF2 (Homo sapiens, UniProt P01344)
Sequence (P01344 25-91): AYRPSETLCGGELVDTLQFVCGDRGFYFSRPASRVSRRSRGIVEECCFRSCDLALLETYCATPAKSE
Test: SPR (Biacore T200) of recombinant IGF2R domain 11 mutants on immobilised biotinylated IGF2
Format: binding
Design: purchased GroPep
Settings: Table 1; 25° C., HBS-EP pH 7.4

# MOLECULE, UNIT INFO, Kinetics koff
data = [
    ("S1600N: domain 11 AB5 background + FG loop S1600N (protein) MKSNEHDDCQVTNPSTGHLFDLSSLSGRAGFTAAYAKGWGVYMSICGENENCPPGVGACFGQTRISVGKANKRLRYVDQVLQLVYKDGSPCPNKSGLSYKSVISFVCRPEAGPTNRPMLISLDKQTCTLFFSWHTPLACEQATECSV", "s⁻¹", 0.0910),
    ("S1602N: domain 11 AB5 background + FG loop S1602N (protein) MKSNEHDDCQVTNPSTGHLFDLSSLSGRAGFTAAYAKGWGVYMSICGENENCPPGVGACFGQTRISVGKANKRLRYVDQVLQLVYKDGSPCPSKNGLSYKSVISFVCRPEAGPTNRPMLISLDKQTCTLFFSWHTPLACEQATECSV", "s⁻¹", 0.0112),
]
